# Target of assay: IRAK4 (Homo sapiens)
# Construct: Degradation of IRAK4 in OCI-LY10 was quantitatively measured using Meso Scale Discovery technology; endogenous in cells; host or cells: OCI-LY10
# Test summary: IRAK4 MSD Degradation in OCI-LY10
# Type: cell-based
# Reported conditions: OCI-LY10 cells, 24 hrs incubation, MSD; read-out: IRAK4 degradation in OCI-LY10 at 24 hrs: DC50
Consider the following compounds and their measured DC50 readings.

Check out these entries, answers already filled in.
[
  {
    "Compound": "Cn1c(=O)n(C2CCC(=O)NC2=O)c2cccc(C3CCN(C[C@H]4CC[C@H](n5cc6cc(NC(=O)c7cccc(C(F)(F)F)n7)c(Cl)cc6n5)CC4)CC3F)c21 (some centres unmarked)",
    "Quantity name": "DC50",
    "Value observed": "10 to 100 nM"
  },
  {
    "Compound": "Cn1c(=O)n(C2CCC(=O)NC2=O)c2cccc(C3CN([C@H]4CCN(C[C@H]5CC[C@H](n6cc7cc(NC(=O)c8cccc(C(F)(F)F)n8)ncc7n6)CC5)C[C@@H]4F)C3)c21 (some centres unmarked)",
    "Quantity name": "DC50",
    "Value observed": "< 10 nM"
  },
  {
    "Compound": "COc1ccc(C(F)(F)F)nc1C(=O)Nc1cc2cn([C@H]3CC[C@@H](CN4CCC5(CC4)CC(CNc4cccc6c4C(=O)N(C4CCC(=O)NC4=O)C6=O)C5)CC3)nc2cc1C(C)(C)O (some centres unmarked)",
    "Quantity name": "DC50",
    "Value observed": "10 to 100 nM"
  }
]

API: value(readout= DC50, system= IRAK4 (Homo sapiens), query= `O=C1CCN(c2cc(C#CCN3CCN(C[C@H]4CC[C@@H](n5cc(NC(=O)c6cnn7ccc(N8C[C@H]9C[C@@H]8CO9)nc67)c(C(F)F)n5)CC4)CC3)ccc2Cl)C(=O)N1` ) > 200 nM

Moving on to CN(C[C@H]1CC[C@H](n2cc(NC(=O)c3cnn4ccc(N5CC(C)(C)OC(C)(C)C5)nc34)c(C(F)F)n2)CC1)C1CCN(c2cccc3c2n(C)c(=O)n3C2CCC(=O)NC2=O)CC1 (some centres unmarked) > 200 nM

----------
# Target of assay: IRAK4 (Homo sapiens, UniProt Q9NWZ3)
# Construct: Degradation of IRAK4 in OCI-LY10 was quantitatively measured using Meso Scale Discovery technology; endogenous in cells; host or cells: OCI-LY10
# Sequence (Q9NWZ3 whole entry): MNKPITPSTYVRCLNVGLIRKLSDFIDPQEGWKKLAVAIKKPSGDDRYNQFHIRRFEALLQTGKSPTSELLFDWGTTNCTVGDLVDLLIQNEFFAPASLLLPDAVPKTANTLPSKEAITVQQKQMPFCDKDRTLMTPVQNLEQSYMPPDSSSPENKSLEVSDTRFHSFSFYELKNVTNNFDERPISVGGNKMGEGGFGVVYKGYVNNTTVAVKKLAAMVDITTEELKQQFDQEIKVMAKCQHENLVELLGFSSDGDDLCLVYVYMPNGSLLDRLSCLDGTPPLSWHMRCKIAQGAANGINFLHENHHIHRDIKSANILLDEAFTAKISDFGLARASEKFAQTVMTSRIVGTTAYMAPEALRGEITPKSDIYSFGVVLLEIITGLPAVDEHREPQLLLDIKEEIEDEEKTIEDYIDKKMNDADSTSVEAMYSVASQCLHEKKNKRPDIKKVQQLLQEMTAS
# Test summary: IRAK4 MSD Degradation in OCI-LY10
# Type: cell-based
# Reported conditions: OCI-LY10 cells, 24 hrs incubation, MSD; read-out: IRAK4 degradation in OCI-LY10 at 24 hrs: DC50
Quantity name: DC50

Some solved cases for reference:
[
  {
    "Molecule": "COc1nc(NC(=O)c2cccc(C)n2)cc2cn([C@H]3CC[C@H](CN4CC[C@@H](c5cccc6c5n(C)c(=O)n6C5CCC(=O)NC5=O)[C@H](F)C4)CC3)nc12 (stereo partly drawn)",
    "DC50": "> 200 nM"
  },
  {
    "Molecule": "Cn1c(=O)n(C2CCC(=O)NC2=O)c2cccc(C#CCOC3CCN(C[C@H]4CC[C@H](n5cc(NC(=O)c6cnn7ccc(C8CCOCC8)nc67)c(C(F)F)n5)CC4)CC3)c21 (stereo partly drawn)",
    "DC50": "< 10 nM"
  },
  {
    "Molecule": "Cn1c(=O)n(C2CCC(=O)NC2=O)c2cccc(N3CC(O[C@@H]4CCN(C[C@H]5CC[C@H](n6cc(NC(=O)c7cnn8ccc(N9C[C@H]%10C[C@@H]9CO%10)nc78)c(C(F)F)n6)CC5)C[C@H]4F)C3)c21 (stereo partly drawn) [I-582]",
    "DC50": "> 200 nM"
  },
  {
    "Molecule": "Cn1c(=O)n(C2CCC(=O)NC2=O)c2cccc(N3CCN(C[C@H]4CC[C@H](n5cc6cc(NC(=O)c7cccc(C#N)n7)ccc6n5)CC4)CC3)c21 (stereo partly drawn)",
    "DC50": "< 10 nM"
  },
  {
    "Molecule": "Cn1c(=O)n(C2CCC(=O)NC2=O)c2cccc(N3CCC(N4CCN(C[C@H]5CC[C@H](n6cc(NC(=O)c7cnn8ccc(N9C[C@H]%10C[C@@H]9CO%10)nc78)c(C(F)F)n6)CC5)CC4)CC3)c21 (stereo partly drawn) [I-69]",
    "DC50": "> 200 nM"
  },
  {
    "Molecule": "Cn1c(=O)n(C2CCC(=O)NC2=O)c2cccc(CC[C@@H]3CN(Cc4ccc(-n5cc(NC(=O)c6cnn7cccnc67)c(C(F)F)n5)cc4)CCO3)c21 (stereo partly drawn)",
    "DC50": "> 200 nM"
  }
]

Turning now to a further molecule:
Given the entry Cn1c(=O)n(C2CCC(=O)NC2=O)c2cccc(N3CC(O[C@H]4CCN(C[C@H]5CC[C@H](n6cc(NC(=O)c7cnn8ccc(N9C[C@H]%10C[C@@H]9CO%10)nc78)c(C(F)F)n6)CC5)C[C@H]4F)C3)c21 (stereo partly drawn) [I-728] , report its measured DC50. < 10 nM

Hey, just so you know, these numbers are from patent US12091411B2.
